test: Test 4: metabolic stability test in human hepatic microsome; format: in vitro ADME; settings: 0.1 mg/mL microsome, 0.1 μmol/L compound, NADPH, 37° C., 30 minutes
parameter measured: Metabolic stability in human hepatic microsome (mL/min/mg protein)

INSERT INTO measurements (smiles_str, prefix_operator, assay_value) VALUES
  ('O=C1c2nc(Cl)ccc2CCN1CCN1CCN(c2noc3ccccc23)CC1', '<', 0.05),
  ('Cn1cc2c(n1)C(=O)N(CCN1CCN(c3nsc4ccccc34)CC1)CC2', '=', 0.038),
  ('Cc1nc2c(o1)CCN(CCN1CCC(c3noc4ccccc34)CC1)C2=O', '=', 0.016),
  ('O=C1c2ncccc2CCN1CCN1CCC(c2noc3ccc(F)cc23)CC1', '<', 0.01),
  ('Cn1ncc2c1CCCN(CCN1CCN(c3nsc4ccccc34)CC1)C2=O', '=', 0.04),
  ('Cc1cc2c(cn1)C(=O)N(CCN1CCC(c3noc4ccccc34)CC1)CC2', '<', 0.05),
  ('Cc1cc2c(C3CCN(CCN4CCc5cccnc5C4=O)CC3)noc2cc1F', '=', 0.061),
  ('Cc1c2c(nn1C)CCN(CCN1CCC(c3noc4ccccc34)CC1)C2=O', '=', 0.017),
  ('Cc1cc2c(cn1)C(=O)N(CCN1CCC(c3noc4ccccc34)CC1)CC21CC1', '=', 0.323);

====

Target: human D2 receptor (Homo sapiens (Human), UniProt P14416)
Sequence (P14416 whole entry): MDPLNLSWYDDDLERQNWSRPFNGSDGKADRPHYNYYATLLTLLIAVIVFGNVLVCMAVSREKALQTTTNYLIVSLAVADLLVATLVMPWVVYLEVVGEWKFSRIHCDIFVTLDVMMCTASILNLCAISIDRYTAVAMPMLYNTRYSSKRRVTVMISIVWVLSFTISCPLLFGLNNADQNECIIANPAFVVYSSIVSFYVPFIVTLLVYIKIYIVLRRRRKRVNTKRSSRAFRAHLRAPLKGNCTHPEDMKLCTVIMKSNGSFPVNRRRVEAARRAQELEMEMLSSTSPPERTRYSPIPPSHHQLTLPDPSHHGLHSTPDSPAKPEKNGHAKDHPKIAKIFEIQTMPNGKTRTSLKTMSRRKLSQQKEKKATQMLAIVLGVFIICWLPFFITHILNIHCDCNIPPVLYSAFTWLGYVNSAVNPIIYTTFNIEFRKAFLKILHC
Assay: Test 1: binding activity for human D2 receptor ([3H]Spiperone)
Conditions: CHO cell membrane fraction, [3H]Spiperone
Description: Test 1: Evaluation of Binding Activity for Human 5-HT1A Receptor, Human 5-HT2A Receptor, and Human D2 Receptor Binding affinity of the present compound for human 5-HT1A receptor, human 5-HT2A receptor, and human D2 receptor was measured by the following procedures. Each mixture was incubated at room temperature for 60 minutes. […] Radioactivity remaining on the filter was measured with a liquid scintillation counter (PerkinElmer, Inc.). Binding inhibition rate was calculated from the following formula. […]
Classify: rule met when Ki is strictly less than 400 nM; rule not met when Ki is not.

INSERT INTO assay_data (smiles_str, assigned_class) VALUES
  ('Cc1cc2c(cn1)C(=O)N(CCN1CCC(c3noc4ccccc34)CC1)CC21CC1', 'rule not met'),
  ('COc1ncc2c(n1)CCN(CCN1CCN(c3noc4ccccc34)CC1)C2=O', 'rule not met'),
  ('COc1ccc2c(n1)C(=O)N(CCN1CCN(c3noc4ccccc34)CC1)CC2', 'rule not met'),
  ('Cn1nc(Br)c2c1CCN(CCN1CCN(c3nsc4ccccc34)CC1)C2=O', 'rule met'),
  ('Cc1ccc2c(C3CCN(CCn4ccc5cccnc5c4=O)CC3)noc2c1', 'rule met'),
  ('COc1cc2c(cn1)C(=O)N(CCN1CCC(c3noc4ccccc34)CC1)CC2', 'rule not met');

====

target: P-gp (MDR1) (Homo sapiens (Human)); test: Test 9: P-gp substrate property (NFR, MDCKII and MDR1-MDCKII cells); format: in vitro ADME; conditions: ratio of Papp B-A/Papp A-B in MDR1-MDCKII cells to that in MDCKII cells
Sequence (P08183 whole entry, species assumed): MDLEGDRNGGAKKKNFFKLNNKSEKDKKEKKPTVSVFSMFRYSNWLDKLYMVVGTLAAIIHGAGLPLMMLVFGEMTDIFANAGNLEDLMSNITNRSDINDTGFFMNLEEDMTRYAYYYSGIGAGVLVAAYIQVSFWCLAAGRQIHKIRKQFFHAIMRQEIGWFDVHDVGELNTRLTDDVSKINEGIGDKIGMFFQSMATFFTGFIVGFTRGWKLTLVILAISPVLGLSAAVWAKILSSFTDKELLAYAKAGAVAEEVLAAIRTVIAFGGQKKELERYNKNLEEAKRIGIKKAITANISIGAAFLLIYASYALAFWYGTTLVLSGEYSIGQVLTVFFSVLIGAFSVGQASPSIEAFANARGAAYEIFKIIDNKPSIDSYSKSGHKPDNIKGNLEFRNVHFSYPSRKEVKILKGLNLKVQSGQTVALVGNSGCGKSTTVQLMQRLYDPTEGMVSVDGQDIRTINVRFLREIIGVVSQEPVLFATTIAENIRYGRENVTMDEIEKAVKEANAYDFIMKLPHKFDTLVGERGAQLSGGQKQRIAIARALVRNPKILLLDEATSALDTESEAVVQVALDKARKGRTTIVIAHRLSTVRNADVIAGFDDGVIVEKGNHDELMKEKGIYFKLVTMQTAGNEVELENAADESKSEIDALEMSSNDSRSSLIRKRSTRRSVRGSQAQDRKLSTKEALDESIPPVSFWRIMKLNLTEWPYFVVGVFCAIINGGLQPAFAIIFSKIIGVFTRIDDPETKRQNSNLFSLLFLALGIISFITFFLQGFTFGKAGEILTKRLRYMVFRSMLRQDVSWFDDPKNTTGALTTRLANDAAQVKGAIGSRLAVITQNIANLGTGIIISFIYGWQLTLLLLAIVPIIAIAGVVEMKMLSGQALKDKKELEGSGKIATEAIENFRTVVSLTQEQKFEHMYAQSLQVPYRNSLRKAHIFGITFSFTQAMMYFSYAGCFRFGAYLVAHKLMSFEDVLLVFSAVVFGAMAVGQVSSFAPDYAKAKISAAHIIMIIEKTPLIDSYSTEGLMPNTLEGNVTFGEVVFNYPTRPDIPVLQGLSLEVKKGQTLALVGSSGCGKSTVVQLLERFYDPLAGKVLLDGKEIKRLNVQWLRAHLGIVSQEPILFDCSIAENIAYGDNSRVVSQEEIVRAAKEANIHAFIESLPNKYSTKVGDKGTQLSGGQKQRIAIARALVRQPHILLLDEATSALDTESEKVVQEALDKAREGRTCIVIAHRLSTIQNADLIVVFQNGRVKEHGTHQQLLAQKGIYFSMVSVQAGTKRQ
Each record here notes measured NFR (Net Flux Ratio).
parameter measured: NFR (Net Flux Ratio)

INSERT INTO results (compound, parameter_measured, assay_value) VALUES
  ('Cn1ncc2c1CCCN(CCN1CCC(c3noc4ccccc34)CC1)C2=O [Example 43]', 'NFR (Net Flux Ratio)', 2.2),
  ('Cn1ncc2c1C(=O)N(CCN1CCN(c3nsc4ccccc34)CC1)CC2 [Example 59]', 'NFR (Net Flux Ratio)', 1.1),
  ('Cn1cc2c(n1)CCN(CCN1CCN(c3nsc4ccccc34)CC1)C2=O [Example 36]', 'NFR (Net Flux Ratio)', 1.8),
  ('Cn1cnc2c1CCN(CCN1CCN(c3nsc4ccccc34)CC1)C2=O [Example 54]', 'NFR (Net Flux Ratio)', 6.6),
  ('Cn1ccc2c1CCN(CCN1CCC(c3noc4ccccc34)CC1)C2=O [Example 60]', 'NFR (Net Flux Ratio)', 1.5),
  ('CCc1ccc2c(n1)C(=O)N(CCN1CCC(c3noc4ccccc34)CC1)CC2 [Example 185]', 'NFR (Net Flux Ratio)', 2.4),
  ('O=C1c2nc(Cl)ccc2CCN1CCN1CCC(c2noc3ccccc23)CC1 [Example 146]', 'NFR (Net Flux Ratio)', 2.3);
